B1: HDV Ribozyme (parent)
chain: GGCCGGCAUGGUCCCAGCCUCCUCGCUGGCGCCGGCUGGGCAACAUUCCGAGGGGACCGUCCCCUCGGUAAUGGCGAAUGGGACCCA

- Variants of: B1
- Measurement description: self-cleavage, relative activity (ratio to wild type); higher = more cleavage; co-transcriptional
List of self-cleavage values.
Enter the number alone.

Worked cases, answers included:
[[record]]
sequence_data = "GGCCGGCAUGGUCCCAGCCUCCUCGCUGUCGCCGGCUGGGCAACAUUCCGAGGGGACCGUACCCUCGGUAAUGGCGAAUGGGACCCA"
reported_endpoint = "self-cleavage"
endpoint_value = 0.089

[[record]]
sequence_data = "GGCCGGCAUGGUCCCAGCCUCCUCGCUGGCGCCGGCUGGGCAACAUUCCGAGGGCACGGUCCCCUCGGUAAUGGCGAAUGGGACCCA"
reported_endpoint = "self-cleavage"
endpoint_value = 1.11

[[record]]
sequence_data = "GGCCGGCAUGGUCCCAGCCUCCUCGGUGGCGCCGGCUGGGCAACAUUCCGAGGGGGCCGUCCCCUCGGUAAUGGCGAAUGGGACCCA"
reported_endpoint = "self-cleavage"
endpoint_value = 0.795


Problem: Record request: self-cleavage value, item `GGGCGGCAUGGUCCCAGCCUCCUCGCUGGCGCCGGCUGGGCCACAUUCCGAGGGGACCGUCCCCUCGGUAAUGGCGAAUGGGACCCA`
Result: 0.128

Problem: Quick check: self-cleavage of `GGCCGGCAUGGUCCCAGCCUCCUCGCUGGCGCCGGCUGGGCAAUAAUCCGAGGGGACCGUCCCCUCGGUAAUGGCGAAUGGGACCCA` ?
Result: 0.767

Problem: Sample `GGCCGGCAUGGUCCCAGCCUCCUCGCUGGCGCCGGCUGGGCAACAUUACGAGGGGACCGUCCCCUCGGUAAUGGCGAAUGGGAUCCA` — what was its self-cleavage?
Result: 0.819

Source listed as the RNAGym collection of RNA variant scans (doi:10.7554/elife.80360).
